TEST_SYSTEM: T1, EsCas13d, nuclease-dead (Eubacterium siraeum, UniProt B0MS50, R295A;H300A;R849A;H854A)
T1 sequence: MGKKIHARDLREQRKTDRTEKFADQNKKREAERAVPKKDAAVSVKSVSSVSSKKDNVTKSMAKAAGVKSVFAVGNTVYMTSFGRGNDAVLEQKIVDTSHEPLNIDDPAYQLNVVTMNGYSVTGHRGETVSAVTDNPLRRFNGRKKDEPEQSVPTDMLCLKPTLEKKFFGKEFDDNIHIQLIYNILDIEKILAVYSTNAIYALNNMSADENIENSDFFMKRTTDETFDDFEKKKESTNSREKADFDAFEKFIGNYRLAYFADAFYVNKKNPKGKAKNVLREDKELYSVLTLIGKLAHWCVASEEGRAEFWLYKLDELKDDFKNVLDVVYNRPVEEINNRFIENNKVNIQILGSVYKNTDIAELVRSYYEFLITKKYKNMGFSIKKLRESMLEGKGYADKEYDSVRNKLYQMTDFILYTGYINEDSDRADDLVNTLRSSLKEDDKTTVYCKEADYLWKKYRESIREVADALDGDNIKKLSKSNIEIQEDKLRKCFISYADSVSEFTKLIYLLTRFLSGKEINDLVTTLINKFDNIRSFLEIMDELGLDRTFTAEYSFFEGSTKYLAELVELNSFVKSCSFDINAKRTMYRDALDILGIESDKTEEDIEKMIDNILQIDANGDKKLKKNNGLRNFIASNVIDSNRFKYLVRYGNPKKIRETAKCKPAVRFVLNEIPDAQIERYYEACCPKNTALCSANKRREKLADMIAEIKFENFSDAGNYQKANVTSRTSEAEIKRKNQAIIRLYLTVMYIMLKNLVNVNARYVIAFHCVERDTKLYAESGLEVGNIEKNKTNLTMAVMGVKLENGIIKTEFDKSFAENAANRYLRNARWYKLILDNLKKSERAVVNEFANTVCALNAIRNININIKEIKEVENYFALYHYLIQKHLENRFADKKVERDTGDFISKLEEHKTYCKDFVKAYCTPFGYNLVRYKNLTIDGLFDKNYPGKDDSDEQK
EXPERIMENT_DESCRIPTION: crRNA (strand 1, pre-loaded); Mg2+; 40 mM Tris-HCl pH 7.5, 150 mM NaCl, 6 mM MgCl2, 1 mM DTT, 0.1% Tween-20, 0.2 mg/ml BSA; 25 C; 10 min per concentration, then washed
CONDITION_INFO: tags: His6-TwinStrep-SUMO cleaved; N-terminal SNAP kept (SNAP-Surface 488); label: 3' end held by stalled T7 RNA polymerase
PROPERTY_NAME: Kd (nM)
Provide only the numeric value, understood in nM.

target 2 MT 5'PFS UCU 3'PFS AAG (mixed) RNA 1: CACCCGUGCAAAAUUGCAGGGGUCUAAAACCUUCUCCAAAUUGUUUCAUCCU RNA 2: GGGAAUGGAUCCACAUCUACGAAUUCUCUAGGAUGAAACAAUUUGGAGAAGAAGAGAUCGGAAGAGCACACGU = 20

Now for the binder whose Kd we want.
Query string: I have this binder here, target 1 A16C,C22A (mixed) RNA 1: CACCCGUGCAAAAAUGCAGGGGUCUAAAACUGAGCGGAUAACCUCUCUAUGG RNA 2: GGGAAUGGAUCCACAUCUACGAAUUCGUAACAUAGCGAGGUUAUCCGCUCACCGAGAUCGGAAGAGCACACGU , and I need its recorded Kd.
Result string: 71
